- System: SNB-75 CNS
- test-name: NCI-60 one-dose screen, 48 h (100 = growth as untreated, 0 = no growth, -100 = all killed)
- settings: 10 µM unless noted
The panel holds about 83,000 compounds, 20% with a hit somewhere; the sample as a whole holds those more often.
Values of growth strictly less than 90% map to met, and values of at least 90% map to not met.

                                    compound    class
 0  CCCCCCCCCc1cc[n+](CC(=O)c2ccc([N+](=O)[O-])cc2)cc1      met
 1  O=C(Nc1ccc(-n2cc(-c3ccncc3)c(-c3ccc(Cl)c(O)c3)n2)cc1)c1ccc(Cl)c(C(F)(F)F)c1      met
 2          Cc1nc(NC(=O)NC2CCCCC2)sc1C(=O)NN  not met
 3               CCOc1ccc2nc3ccc(Cl)cc3nc2c1  not met
 4  C[n+]1c2ccccc2c(Nc2ccc(NS(=O)(=O)CCCCN=C(N)N)cc2)c2ccc(N)cc21      met
 5  Cc1ccc(C(=O)Nc2ccc(CN3CCN(C)CC3)c(C(F)(F)F)c2)cc1C#Cc1cnc(N)c2ccc(F)cc12      met
 6         c1ccc(Nc2ncc3c(n2)-c2cccn2CC3)cc1      met
 7  CCc1c(C)c2ccc(OCC(=O)N=Nc3c(O)[nH]c4ccccc34)c(C)c2oc1=O      met
 8      O=C(Nc1ccc(Cl)cn1)C1(c2ccccc2)CCCCC1  not met
 9              O=C(/C=C\c1ccccc1Cl)c1ccccc1      met
10    CC(=O)Nc1nc(C)c(C(=O)N/N=C/N2CCCCC2)s1      met
11         COc1cccc2c1nc1cccc(OC)c1[n+]2[O-]      met
12  COc1cc(NC(C)CCCN)c2nccc(C)c2c1OC (configuration not stated)  not met
13  C=C1CCC2C3(C)COC(c4ccccc4)OC3CCC2(C)C1C/C=C1/C(=O)OCC1O (configuration not stated)      met
14  COc1ccc2cnc(N)c(C#Cc3cc(C(=O)Nc4ccc(CN5CCN(C)CC5)c(C(F)(F)F)c4)cnc3C)c2c1      met
15  Cc1c(Cc2ccccc2)c(=O)oc2c(C)c(OCc3n[nH]c(=S)o3)ccc12      met
16                   NNC(=O)CNc1ccc2ccccc2c1  not met
17  CCCCCCNC(=O)Oc1ccc(/C(=C(/C)Cc2ccc(OC)cc2)c2ccc(OCCN(C)C)cc2)cc1      met
18  C[C@H]1C[C@@H](n2cnc3c(N)nccc32)[C@H](O)[C@@H]1O  not met
19         CCCCCc1ccnc(CC(=O)c2ccc(OC)cc2)c1      met
20  NC(=O)CC(NC(=O)COc1ccc(Cl)cc1Cl)C(=O)O (configuration not stated)  not met
21  CC1(C)C(O)NC(Cl)=C(C#N)C1(C#N)C#N (configuration not stated)  not met
22      CC(=O)N(N=O)c1ccc([N+](=O)[O-])cc1Cl      met
23                COC(=O)c1c[n+]([O-])ccc1OC  not met

----------
- System: HOP-92 NSCLC
- test-name: NCI-60 one-dose screen, 48 h (100 = growth as untreated, 0 = no growth, -100 = all killed)
- settings: 10 µM
Compounds without any hit were thinned out: in the full panel of roughly 83,000, 20% have a hit.
Values of growth greater than or equal to 50% map to label 1; values below map to label 0.

                                    compound  assay_system    class
 0  Cc1nnc(/N=C2\NC(=O)/C(=C/C=C/c3ccccc3)S2)s1  HOP-92 NSCLC  label 1
 1  CC[C@H](Nc1ncnc2nc[nH]c12)c1nc2cccc(NCc3ccc(C(=O)NO)o3)c2c(=O)n1-c1ccccc1  HOP-92 NSCLC  label 1
 2  CCCCCCNC(=O)Oc1ccc(/C(=C(/C)Cc2ccc(OC)cc2)c2ccc(OCCN(C)C)cc2)cc1  HOP-92 NSCLC  label 0
 3          Cc1nc(NC(=O)NC2CCCCC2)sc1C(=O)NN  HOP-92 NSCLC  label 0
 4  CCN(CC)c1ccc2nc3ccc(N=Nc4ccc(O)cc4)cc3[n+](-c3ccccc3)c2c1  HOP-92 NSCLC  label 1
 5  COC1(OC)N=C(N)C2(C#N)C3(C(=O)Nc4ccccc43)C12C#N (stereo not given)  HOP-92 NSCLC  label 1
 6  CCOc1ccc(/C=N/NC(=O)c2cccc3ccccc23)cc1OCC  HOP-92 NSCLC  label 1
 7                     CCCCCCCCCC[N+](C)(C)C  HOP-92 NSCLC  label 0
 8  CN1CCN(Cc2ccc(NC(=O)c3ccc(C#Cc4c(N)ncc5ccc(F)cc45)cc3)cc2C(F)(F)F)CC1  HOP-92 NSCLC  label 0
 9  CCOc1ccccc1/C=N\N=C(N/N=C/c1ccccc1OCC)N/N=C/c1ccccc1OCC  HOP-92 NSCLC  label 0
10  COc1ccc(Cn2cc3c(c2-c2ccccc2)CCc2cnoc2-3)cc1N  HOP-92 NSCLC  label 1
11  CC(C)(C)c1ccc([I+]c2ccc(C(C)(C)C)cc2)cc1  HOP-92 NSCLC  label 0
12  O=C1N/C(=N\c2nnc(-c3ccc(O)cc3)s2)S/C1=C\c1ccccc1O  HOP-92 NSCLC  label 1
13  Cc1cc2c(-c3nc4ccccc4[nH]3)c(O)c(O)cc2c(O)c1-c1c(C)cc2c(-c3nc4ccccc4[nH]3)c(O)c(O)cc2c1O  HOP-92 NSCLC  label 0
14              Oc1ccccc1/C=N/N=C\c1ccccc1Cl  HOP-92 NSCLC  label 1
15  COc1cc(OC)cc(-c2ccc(-c3ccc(C(=N)N)cc3)s2)c1  HOP-92 NSCLC  label 0
16  Cc1ccc(OCCn2ccc(=O)n(CCOc3ccc(Cl)cc3C(=O)c3cc(C)cc(C)c3)c2=O)cc1  HOP-92 NSCLC  label 0
17  COc1ccc(Cn2cc3c(c2-c2ccc(O)cc2)CCc2cnoc2-3)cc1  HOP-92 NSCLC  label 1
18  CC1(c2ccc(Br)cc2)NC(=O)NC1=O (stereo not given)  HOP-92 NSCLC  label 1
19  C=CCSc1nnc(COc2ccc3c(C)c(Cc4ccccc4)c(=O)oc3c2C)o1  HOP-92 NSCLC  label 1
20  NC(=O)CC(NC(=O)COc1ccc(Cl)cc1Cl)C(=O)O (stereo not given)  HOP-92 NSCLC  label 1
21      COC(=O)/C(Br)=C/c1c[nH]c2ccc(Br)cc12  HOP-92 NSCLC  label 0
22    c1cc[c]([Bi]([c]2ccccc2)[c]2ccccc2)cc1  HOP-92 NSCLC  label 1
23  CCN(CC)CCCC(C)Nc1c(C)cnc2cc(Cl)c(C)cc12 (stereo not given)  HOP-92 NSCLC  label 1
24            CCCOC(=O)c1c(C)n(C)c2scc[n+]12  HOP-92 NSCLC  label 0
25  C=C(C)[C@@H]1CC[C@]2(COC(=O)c3ccccc3C(=O)O)CC[C@]3(C)[C@H](CC[C@@H]4[C@@]5(C)CCCNC(C)(C)[C@@H]5CC[C@]43C)[C@@H]12  HOP-92 NSCLC  label 1
26             C/C(=N\Nc1ccc(Cl)cn1)c1ccccn1  HOP-92 NSCLC  label 0
27  COc1ccc(-c2nc(SCC(C)C)nc(Nc3ccc([N+](=O)[O-])cc3)c2C#N)cc1  HOP-92 NSCLC  label 1
28  N=C(N)c1ccc(-c2ccc(-c3cc(Cl)cc(Cl)c3)s2)cc1  HOP-92 NSCLC  label 0
29  COc1cc(CNC(=O)CCCC/C=C/C(C)C)ccc1OCc1nnc(Nc2ccccc2F)o1  HOP-92 NSCLC  label 1

----------
- System: NCI-H322M lung
- test-name: NCI-60 one-dose screen, 48 h (100 = growth as untreated, 0 = no growth, -100 = all killed)
- settings: 10 µM unless noted
The panel holds about 83,000 compounds, 20% with a hit somewhere; the sample as a whole holds those more often.
# key: entry, value: growth
quantity-name: growth (%)

>>> df
                                    compound    assay_system  quantity_name  quantitative_readout
 0  CCOc1ccccc1/C=N\N=C(N/N=C/c1ccccc1OCC)N/N=C/c1ccccc1OCC  NCI-H322M lung         growth                  11.3
 1  CCOC(=O)c1cc(C(=O)c2ccc(Br)cc2)n2cc(C)cc(C)c12  NCI-H322M lung         growth                  96.7
 2  COc1cc(/C=C/C(=O)c2ccc(F)cc2)ccc1OCCCCOc1cc2c(cc1OC)C(=O)N1CCCC1C=N2 (configuration not stated)  NCI-H322M lung         growth                  88.1
 3  CCOC(=O)C1=C(C(F)(F)F)NC(=O)NC1CN1C(=O)c2ccccc2C1=O (configuration not stated)  NCI-H322M lung         growth                   107
 4    CCOC(=O)c1c2c(cn1Cc1ccccc1)-c1oncc1CC2  NCI-H322M lung         growth                  92.8
 5  CC1=C(C)C[C@]2(C(=O)O[C@H]3CCCC[C@@H]32)[S@](=O)C1  NCI-H322M lung         growth                   106
 6           O=C(CBr)OCc1ccc([N+](=O)[O-])o1  NCI-H322M lung         growth                   132
 7  CCCCCCCCC1OC1CCCCCCCC(=O)O (configuration not stated)  NCI-H322M lung         growth                   102
 8  COc1cc2c(c(OC)c1OC)C(=O)CC(c1cccc(C(=O)Nc3cccc(Br)c3)c1)O2 (configuration not stated)  NCI-H322M lung         growth                  81.5
 9  CCCCN(CCCC)CC(O)CN(CC)CC (configuration not stated)  NCI-H322M lung         growth                  97.6
10  N#Cc1ccc(OCc2nc(N)nc(N)c2-c2ccc(Cl)c(Cl)c2)cc1  NCI-H322M lung         growth                  40.6
11  O=C(Cc1ccccc1[N+](=O)[O-])c1ccc2c(c1)OCO2  NCI-H322M lung         growth                   103
